Multiple publications report pKi for UniProt:O43614; what follows is a combined list.
pKi: −log10 of the molar value.
Classes based on pKi: LOW: < 6; MID: ≥ 6 and < 7; HIGH: ≥ 7

Would you please look over these solved cases?
{"Compound": "C[C@@H]1[C@H]2C[C@@H](Oc3ccc(C(F)(F)F)cn3)[C@H](C2)N1C(=O)c1ccccc1-c1ncccn1 (relative stereo)", "Class assignment": "MID"}
{"Compound": "O=C(c1cccc(F)c1-c1[nH]ncc1F)N1CC2CN(c3cnc4cc(F)c(F)cc4n3)CC2C1 (centres unmarked)", "Class assignment": "HIGH"}
{"Compound": "C[C@@H]1CC[C@@H](Oc2cccc3ocnc23)CN1C(=O)c1ccccc1-n1nccn1 (mixture of isomers)", "Class assignment": "HIGH"}

Problem: Place this compound in its band: `C[C@H]1[C@H](Oc2cnc(C(F)(F)F)cn2)CCCN1C(=O)c1cccnc1-n1nccn1`
Solution: LOW

Problem: Into which bin does this compound go? COc1ccc(-n2nccn2)c(C(=O)N2CCC[C@@H](Nc3cnc(C(F)(F)F)cn3)[C@@H]2C)c1 (relative stereo)
Solution: MID

Problem: Where would `C[C@H]1[C@H](Oc2cnc(C(F)(F)F)cn2)CCCN1C(=O)c1ccccc1-c1ncc(F)cn1` land among the classes by reported pKi?
Solution: LOW

Problem: Sort into band: C[C@H]1[C@H](Nc2ncc(C(F)(F)F)cn2)CCCN1C(=O)c1ccc(F)cc1-c1ncco1 (relative stereo)
Solution: LOW

Problem: Input `Cc1cnc(C(=O)N2CCC[C@@H](Nc3nc4ccccc4o3)[C@@H]2C)c(-n2nccn2)c1` ; output its category
Solution: LOW

Problem: Exam item: assign `C[C@@H]1[C@H]2C[C@@H](Oc3ccc(C(F)(F)F)cn3)[C@H](C2)N1C(=O)c1ccccc1-c1cccc([N+](=O)[O-])n1` to the correct category.
Solution: LOW

Problem: State the class of the compound shown: C[C@@H]1[C@H]2C[C@@H](Oc3ccc(C(F)(F)F)nc3)[C@H](C2)N1C(=O)c1ccccc1-n1nccn1 (relative stereo)
Solution: LOW

Problem: Category of `C[C@@H]1[C@@H]2CC[C@@H]([C@H](Oc3ccc(C(F)(F)F)cn3)C2)N1C(=O)c1cccc(F)c1-c1ncccn1` :
Solution: LOW
